assay: binders of probe aFST on microarray, primary screen, stem cell growth factor project, biochemical, small-molecule microarray, fluorescence 635/667 (AID 1086); settings: higher = more signal;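 further: score merges 667 nm fluorescence with signal-to-noise of each printed compound spot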
reported property: composite z-score
// no unit string in output, number only

Bench note: what composite z-score did CC(C)=NOC[C@@H](O)[C@H]1O[C@@H]2OC(C)(C)O[C@@H]2[C@H]1O show?
0.548

Please do the same for CCOC(=O)[C@H](Cc1ccccc1)NC(=O)CCC1CC(OC(=O)NCc2cccc3ccccc23)CC2(CCCC(COC(=O)NCCc3ccccc3OC)O2)O1 (stereo partly specified) as well.
0.327

Please do the same for CCOC(=O)[C@H](CC(C)C)NC(=O)CCC1CC(OC(=O)NCc2ccc3c(c2)OCO3)CC2(CCCC(COC(=O)NCCc3ccc(Cl)cc3)O2)O1 (stereo partly specified) as well.
-0.0845

Please do the same for COc1ccc(COC(=O)NN=C2C[C@@H](O)[C@@H](O)[C@@H]3[C@@H]4C(=O)N(C[C@@H]5CCCO5)C(=O)[C@@H]4CC[C@H]23)cc1 as well.
0.162

Please do the same for CCOC(=O)NN=C1C[C@@H](O)[C@@H](O)[C@@H]2[C@@H]3C(=O)N(C[C@@H]4CCCO4)C(=O)[C@@H]3CC[C@H]12 as well.
-0.0482

Please do the same for O=C1[C@H]2[C@H]3[C@H](O)[C@H](O)CC(=NOC[C@@H](O)COCc4ccco4)[C@@H]3CC[C@H]2C(=O)N1C1CCCCC1 as well.
-0.045

Please do the same for CO[C@@H](C(C)C)[C@@H](C)C1OC(=O)CC1O (stereo partly specified) as well.
-0.192

Please do the same for CC(C)CON=C1C[C@@H](O)[C@@H](O)[C@@H]2[C@@H]3C(=O)N(C(C)(C)C)C(=O)[C@@H]3CC[C@@H]12 as well.
-0.0117

Please do the same for C#CCCCON=C1[C@H]2CCn3c(=O)n([C@@H](CC)c4ccccc4)c(=O)n3[C@H]2[C@H](O)[C@@H]2O[C@H]12 as well.
-0.0356

Please do the same for COc1ccc(-c2cnnc(CCCn3ccnc3-c3ccccc3)n2)cc1 as well.
0.117

Please do the same for CC(=O)OC[C@H]1O[C@@H](ON=C2[C@H]3CCn4c(=O)n(-c5ccccc5)c(=O)n4[C@H]3[C@H](O)[C@@H]3O[C@H]23)[C@H](OC(C)=O)[C@@H](OC(C)=O)[C@@H]1OC(C)=O as well.
0.259

Please do the same for CCN(CC)CC(O)CN1CCCCc2nc(C)c(C)cc21 (stereo unspecified) as well.
0.101

Please do the same for O=C1[C@H]2CCn3c(=O)n(-c4ccccc4)c(=O)n3[C@H]2[C@H](O)[C@@H]2O[C@H]12 as well.
-0.0545

Please do the same for CC(=O)OC[C@H]1O[C@H](CCON=C(C)C)C=C[C@@H]1OC(C)=O as well.
0.36

Please do the same for COC(=O)[C@@H]1CC[C@H](C)[C@@H](c2ccc(Br)cc2)N1C(=O)C(F)(F)F as well.
-0.249

Please do the same for CO[C@@H]1COC(=O)[C@H](CCSC)NC(=O)CC=C[C@@H](C)COC(=O)[C@@H]2CCCN2C(=O)CC=C[C@H]1C as well.
0.16
